System: NCI-H23
Test: NCI tumour cell line growth inhibition, 48 h
Calls of active or inactive are those of the source. Rule as the data show it: active = GI50 up to about 1.1 µM and inactive = higher.
propertyLabel: GI50

Here is how some compounds turned out for GI50.
>  <compound>
NS(=O)(=O)c1nnc(NC(=O)C23CC4CC(CC(C4)C2)C3)s1

>  <GI50>
> 100 µM (inactive)

$$$$
>  <compound>
COC(=O)C1CCCN1C(=O)OC(C)(C)C (stereo not given)

>  <GI50>
> 100 µM (inactive)

$$$$
>  <compound>
CC(=O)O[C@H]1C=CC(=O)C(C)CC1C (stereo not given in full)

>  <GI50>
75.9 µM (inactive)

$$$$
>  <compound>
Nc1ccn(C2CC(O)C(COP(=O)(S)OC3CC(n4ccc(N)nc4=O)OC3CO)O2)c(=O)n1 (stereo not given)

>  <GI50>
> 100 µM (inactive)

$$$$
>  <compound>
Nc1nc(O)c2ncn(C3OC(CO)C(O)C3O)c2n1 (stereo not given)

>  <GI50>
17.4 µM (inactive)

$$$$
>  <compound>
CC(=O)C1C(=O)C(=O)N(CCN2C(=O)C(=O)C(C(C)=O)C2=O)C1=O (stereo not given)

>  <GI50>
> 100 µM (inactive)

$$$$

QUERY: Bench note: what GI50 did `CCn1c(=O)c2c3cc(OC(C)=O)ccc3oc2c2ccc(OC(C)=O)cc21` show?
RESULT: 37.9 µM (inactive)

QUERY: Could you tell me which GI50 is on file for `CC(C)OP(=O)(OC(C)C)c1nc(-c2ccccc2)n(-c2ccc([N+](=O)[O-])cc2)n1` ?
RESULT: > 100 µM (inactive)

QUERY: Using the record for COc1ccc(/C=C2/SC(c3c(O)ccc4ccccc34)N(NC(=O)CCCCCCCCC(=O)NN3C(=O)/C(=C\c4ccc(OC)c(OC)c4)SC3c3c(O)ccc4ccccc34)C2=O)cc1OC (stereo not given) , report its GI50.
RESULT: 2.22 µM (inactive)

QUERY: // returns reported GI50 for input O=C(CCN1CCN2c3ccccc3CCC2C1)c1ccc(F)cc1 (stereo not given)
RESULT: 36.1 µM (inactive)
